Hello, the source for this data is patent US20250042886A1, in case you need it.

For each of the molecules below, state its inhibition at 50 µM.
# System: Colletotrichum lindemuthianum
# TEST METHOD NOTES: Colletotrichum lindemuthianum in vitro cell test
# Assay type: cell-based
# STATED CONDITIONS: 144 h, 50 μMol/l of active ingredient, liquid culture, 6 days incubation, read-out: efficacy (inhibition of fungal growth)
# Method: B-7. […] Fungicides were evaluated for their ability to inhibit spores germination and mycelium growth in liquid culture assay. […] After 6 days incubation, fungi-toxicity of compounds was determined by spectrometric measurement of mycelium growth. Inhibition of fungal growth was determined by comparing the absorbance values in wells containing the fungicides with the absorbance in control wells without fungicides.

For every item in the list below, what is its measured inhibition at 50 µM?
1. Cc1ccc(Sc2nnc(C)c(C)c2C2=NOC[C@@H](c3ccc(C)s3)N2)c(C)c1 (racemic)
2. COc1cccc(Sc2nnc3ccccc3c2C2=NOC[C@H](c3ccc(C)s3)N2)c1 (racemic)
3. Cc1ccc([C@H]2CON=C(c3c(Sc4cccc(Cl)c4Cl)nnc4ccccc34)N2)s1 (racemic)
4. Cc1ccc([C@@H]2CON=C(c3c(Sc4cccc(OC(F)(F)F)c4)nnc(C)c3C)N2)s1 (racemic)
5. Cc1ccc([C@H]2CON=C(c3c(Sc4cccc(Cl)c4)nnc4ccccc34)N2)s1 (racemic)
6. Cc1ccc([C@H]2CON=C(c3c(Sc4ccccc4)nnc4ccccc34)N2)s1 (racemic)
7. Cc1cc([C@H]2CON=C(c3c(Sc4ccc(F)c(Cl)c4)nnc(C)c3C)N2)c(C)s1 (racemic)

1: 70 to 79%; 2: 90 to 100%; 3: 90 to 100%; 4: 90 to 100%; 5: 90 to 100%; 6: 90 to 100%; 7: 90 to 100%

// fetch inhibition at 50 µM; item: Cc1cc([C@@H]2CON=C(c3c(Sc4cccc(Cl)c4Cl)nnc(C)c3C)N2)c(C)s1 (racemic) ; system: Colletotrichum lindemuthianum
80 to 89%

====

For each of the compounds below, state its pest or weed control at 500 ppm.
# Test system: Alternaria brassicae
# TEST METHOD NOTES: In vivo preventive test on Alternaria brassicae (leaf spot on radish or cabbage)
# STATED CONDITIONS: 500 ppm of active ingredient, sprayed on young radish or cabbage plants 24 h before inoculation, evaluated 3 to 4 days after inoculation, read-out: efficacy

Report measured pest or weed control at 500 ppm; entry is Clc1cccc(Sc2nnc(Cl)cc2C2=NOC[C@@H](Cc3ccc(Cl)cc3Cl)N2)c1 (racemic)
80 to 89%

Report measured pest or weed control at 500 ppm; entry is Cc1cccc(Sc2nnc(C)c(C)c2C2=NOC[C@H](c3cc(C)sc3C)N2)n1 (racemic)
70 to 79%

Report measured pest or weed control at 500 ppm; entry is COc1cccc(Sc2nnc3ccccc3c2C2=NOC[C@@H](Cc3ccc(C)cc3C)N2)c1 (racemic)
90 to 100%

Report measured pest or weed control at 500 ppm; entry is Cc1ccc(C[C@H]2CON=C(c3nc(C)ncc3Sc3cccc(C(F)(F)F)c3)N2)c(Cl)c1 (racemic)
80 to 89%

Report measured pest or weed control at 500 ppm; entry is Cc1cc([C@@H]2CON=C(c3c(Sc4ccccc4C)nnc(C)c3C)N2)c(C)s1 (racemic)
80 to 89%

For every item in the list below, what is its measured pest or weed control at 500 ppm?
1. Cc1cc([C@H]2CON=C(c3c(Sc4cccc(F)c4)nnc(C)c3C)N2)c(C)s1 (racemic)
2. Cc1cc([C@H]2CON=C(c3c(Sc4ccccc4)nnc(C)c3C)N2)c(C)s1 (racemic)
3. Cc1ccc([C@H]2CON=C(c3c(Sc4cccc(Cl)c4F)nnc4ccccc34)N2)s1 (racemic)
4. Cc1ccc([C@H]2CON=C(c3c(Sc4ccc(F)c(Cl)c4)nnc4ccccc34)N2)s1 (racemic)
5. Cc1ccc([C@H]2CON=C(c3c(Sc4ccccc4)nnc4ccccc34)N2)s1 (racemic)

1. 90 to 100%
2. 80 to 89%
3. 90 to 100%
4. 80 to 89%
5. 80 to 89%

For every item in the list below, what is its measured pest or weed control at 500 ppm?
1. Cc1ccc([C@H]2CON=C(c3c(Sc4cccc(Cl)c4)nnc4ccccc34)N2)s1 (racemic)
2. Cc1cccc(Sc2cnc3ccccc3c2C2=NOC[C@H](Cc3ccc(C)cc3C)N2)c1 (racemic)
3. Cc1ccc([C@H]2CON=C(c3c(Sc4ccccc4C)nnc4ccccc34)N2)s1 (racemic)

90 to 100%
90 to 100%
90 to 100%

====

# TEST METHOD NOTES: Measurement of Log P values by HPLC on reversed phase columns (EEC directive 79/831 Annex V.A8)
# Assay type: physicochemical
# STATED CONDITIONS: Table 1, compounds of formula (I); method [a]: LC-UV, acidic range, 0.1% formic acid in water and acetonitrile
For each of the compounds below, state its chromatographic logP.
Answers are plain numbers.

Previously resolved entries follow.
Report measured chromatographic logP; entry is Cc1cc([C@H]2CON=C(c3c(Sc4ccccc4Cl)nnc(C)c3C)N2)c(C)s1 (racemic)
3.31

Report measured chromatographic logP; entry is Cc1ccc(C[C@H]2CON=C(c3nc(C)ncc3Sc3cccc(C(F)(F)F)c3)N2)c(C)c1 (racemic)
5.21

Report measured chromatographic logP; entry is Cc1ccc(Sc2nnc(C)c(C)c2C2=NOC[C@@H](c3ccc(C)s3)N2)cc1 (racemic)
3.01

For every item in the list below, what is its measured chromatographic logP?
1. Cc1ccc([C@H]2CON=C(c3c(Sc4cc(Cl)cc(Cl)c4)nnc(C)c3C)N2)s1 (racemic)
2. Cc1ccc([C@@H]2CON=C(c3c(Sc4ccc(C(F)(F)F)cc4)nnc(C)c3C)N2)s1 (racemic)

[3.68, 3.36]

====

# Tested on: Colletotrichum lindemuthianum
# TEST METHOD NOTES: In vivo preventive test on Colletotrichum lindemuthianum (leaf spot on bean)
# STATED CONDITIONS: 168 h, 500 ppm of active ingredient, sprayed on young bean plants 24 h before inoculation, evaluated 7 days after inoculation, read-out: efficacy
ASSAY ENDPOINT: pest or weed control at 500 ppm

Previously resolved entries follow.
// fetch pest or weed control at 500 ppm; item: Cc1ccc(C[C@H]2CON=C(c3nc(C)ncc3Sc3cccc(C(F)(F)F)c3)N2)c(Cl)c1 (racemic) [Compound I-013] ; system: Colletotrichum lindemuthianum
90 to 100%

// fetch pest or weed control at 500 ppm; item: Cc1ccc(C[C@H]2CON=C(c3nc(C)ncc3Sc3cccc(C(F)(F)F)c3)N2)c(C)c1 (racemic) [Compound I-007] ; system: Colletotrichum lindemuthianum
90 to 100%

// fetch pest or weed control at 500 ppm; item: COc1cccc(Sc2cnc(C)nc2C2=NOC[C@H](Cc3ccc(C)cc3C)N2)c1 (racemic) [Compound I-009] ; system: Colletotrichum lindemuthianum
70 to 79%

// fetch pest or weed control at 500 ppm; item: Cc1ccc([C@H]2CON=C(c3c(Sc4cccc(Cl)c4)nnc4ccccc34)N2)s1 (racemic) [Compound I-135] ; system: Colletotrichum lindemuthianum
90 to 100%

// fetch pest or weed control at 500 ppm; item: Cc1cccc(Sc2nnc3ccccc3c2C2=NOC[C@H](c3ccc(C)s3)N2)n1 (racemic) [Compound I-066] ; system: Colletotrichum lindemuthianum
70 to 79%

Now turn to the next compound.
// fetch pest or weed control at 500 ppm; item: Cc1ccc([C@@H]2CON=C(c3c(Sc4cccc(C(F)(F)F)c4)nnc(C)c3C)N2)s1 (racemic) [Compound I-044] ; system: Colletotrichum lindemuthianum
90 to 100%

====

# Test system: Alternaria alternata
# TEST METHOD NOTES: Alternaria alternata in vitro cell test
# Type: cell-based
# STATED CONDITIONS: 120 h, 20 ppm of active ingredient, liquid culture, 5 days incubation, read-out: efficacy (inhibition of fungal growth)
ASSAY ENDPOINT: inhibition at 20 ppm

Previously resolved entries follow.
Report measured inhibition at 20 ppm; entry is Cc1ccc(C[C@@H]2CON=C(c3c(Sc4cccc(C(F)(F)F)c4)nnc4ccccc34)N2)c(C)c1 (racemic) [Compound I-029]
90 to 100%

Report measured inhibition at 20 ppm; entry is Cc1cccc(Sc2nnc(Cl)cc2C2=NOC[C@@H](Cc3ccc(Cl)cc3Cl)N2)c1 (racemic) [Compound I-014]
70 to 79%

Report measured inhibition at 20 ppm; entry is Cc1ccc(C[C@@H]2CON=C(c3nc(C)ncc3Sc3cccc(Cl)c3)N2)c(C)c1 (racemic) [Compound I-031]
70 to 79%

Now turn to the next molecule.
Report measured inhibition at 20 ppm; entry is Cc1cccc(Sc2cnc(C)nc2C2=NOC[C@@H](Cc3ccc(C)cc3C)N2)c1 (racemic) [Compound I-032]
70 to 79%

====

# System: Alternaria brassicae
# TEST METHOD NOTES: In vivo preventive test on Alternaria brassicae (leaf spot on radish or cabbage)
# STATED CONDITIONS: 500 ppm of active ingredient, sprayed on young radish or cabbage plants 24 h before inoculation, evaluated 3 to 4 days after inoculation, read-out: efficacy
ASSAY ENDPOINT: pest or weed control at 500 ppm

Previously resolved entries follow.
Report measured pest or weed control at 500 ppm; entry is Cc1cccc(Sc2cnc(C)nc2C2=NOC[C@@H](Cc3ccc(C)cc3C)N2)c1 (racemic) [Compound I-032]
90 to 100%

Report measured pest or weed control at 500 ppm; entry is Cc1ccc([C@H]2CON=C(c3c(Sc4ccccc4Cl)nnc4ccccc34)N2)s1 (racemic) [Compound I-067]
90 to 100%

Report measured pest or weed control at 500 ppm; entry is Cc1ccc([C@H]2CON=C(c3c(Sc4cccc(F)c4)nnc4ccccc34)N2)s1 (racemic) [Compound I-042]
90 to 100%

Report measured pest or weed control at 500 ppm; entry is Cc1ccc([C@H]2CON=C(c3c(Sc4ccc(F)cc4)nnc4ccccc34)N2)s1 (racemic) [Compound I-060]
70 to 79%

Report measured pest or weed control at 500 ppm; entry is Cc1cc([C@H]2CON=C(c3c(Sc4ccccc4Cl)nnc(C)c3C)N2)c(C)s1 (racemic) [Compound I-059]
90 to 100%

Now turn to the next molecule.
Report measured pest or weed control at 500 ppm; entry is Cc1cccc(Sc2nnc(C)c(C)c2C2=NOC[C@H](c3cc(C)sc3C)N2)c1 (racemic) [Compound I-078]
90 to 100%
